The origin of these recorded values is patent US7772425B2.

Quick reference for log10(IC50) among some molecules
Tested on: KERtr cells (Human skin keratinocyte)
Test: Keratinocyte proliferation assay
Format: cell-based
Conditions: 72 hr, BrdU incorporation, read-out: Kera. Prolif. IC50
measured.property: log10(IC50) (log10 of the value in nM)

[
  {
    "molecule": "CCC(CC)(c1ccc(OC(C)C(O)C(C)(C)C)c(C)c1)c1ccc(C(=O)N[C@H](C)C(=O)O)c(C)c1 (stereo partly shown) [Ex. 46]",
    "log10(IC50)": 1.32
  },
  {
    "molecule": "CCC(CC)(c1ccc(C(=O)O)cc1)c1ccc(OCC(O)C(C)(C)C)c(C)c1 (single isomer, unassigned) [Ex. 23]",
    "log10(IC50)": 1.60
  },
  {
    "molecule": "CCC(CC)(c1ccc(OC(C)C(O)C(C)(C)C)c(C)c1)c1ccc(C(=O)OC)c(C)c1 (single isomer, unassigned) [Ex. 10Db]",
    "log10(IC50)": 3.00
  },
  {
    "molecule": "CCC(CC)(c1ccc(-c2nnn[nH]2)cc1)c1ccc(OCC(O)C(C)(C)C)c(C)c1 (single isomer, unassigned)",
    "log10(IC50)": 1.51
  },
  {
    "molecule": "CCC(CC)(c1ccc(OC(C)C(O)C(C)(C)C)c(C)c1)c1ccc(C(=O)Nc2nnn[nH]2)c(C)c1 (single isomer, unassigned) [Ex. 30]",
    "log10(IC50)": 1.30
  },
  {
    "molecule": "CCC(CC)(c1ccc(OCC(O)C(C)(C)C)c(C)c1)c1ccc(C(=O)NCC(=O)O)c(C)c1 (single isomer, unassigned) [Ex. 25B]",
    "log10(IC50)": 1.41
  },
  {
    "molecule": "CCC(CC)(c1ccc(CC2SC(=O)NC2=O)c(C)c1)c1ccc(OCC(O)C(C)(C)C)c(C)c1 (single isomer, unassigned) [Ex. 51]",
    "log10(IC50)": 1.41
  },
  {
    "molecule": "CCC(CC)(c1ccc(OCC(O)C(C)(C)C)c(C)c1)c1ccc(C(=O)N(C)CC(=O)O)c(C)c1 (single isomer, unassigned) [Ex. 19]",
    "log10(IC50)": 1.91
  },
  {
    "molecule": "CCC(CC)(c1ccc(C(=O)O)cc1)c1ccc(OCC(O)C(C)(C)C)c(Cl)c1 (single isomer, unassigned) [Ex. 37]",
    "log10(IC50)": 1.74
  },
  {
    "molecule": "CCC(CC)(c1ccc(CC2SC(=O)NC2=O)c(C)c1)c1ccc(OCC(O)C(C)(C)C)c(C)c1 (single isomer, unassigned) [Ex. 50]",
    "log10(IC50)": 0.48
  },
  {
    "molecule": "CCC(CC)(c1ccc(OC(C)C(O)C(C)(C)C)c(C)c1)c1ccc(C(=O)N(C)CC(=O)O)c(C)c1 (single isomer, unassigned) [Ex. 53]",
    "log10(IC50)": 2.35
  },
  {
    "molecule": "CCC(CC)(c1ccc(OCC(O)C(C)(C)C)c(C)c1)c1ccc(C(=O)N(C)CC(=O)O)c(C)c1 (single isomer, unassigned) [Ex. 18]",
    "log10(IC50)": 3.00
  },
  {
    "molecule": "CCC(CC)(c1ccc(OC(C)C(O)C(C)(C)C)c(C)c1)c1ccc(C(=O)Nc2nnn[nH]2)c(C)c1 (single isomer, unassigned) [Ex. 29]",
    "log10(IC50)": 1.69
  },
  {
    "molecule": "CCC(CC)(c1ccc(OC(C)C(O)C(C)(C)C)c(C)c1)c1ccc(C(=O)NCC(=O)O)c(C)c1 (single isomer, unassigned) [Ex. 32]",
    "log10(IC50)": 3.00
  },
  {
    "molecule": "CCC(CC)(c1ccc(OCC(O)C(C)(C)C)c(C)c1)c1ccc(C(=O)NCC(=O)O)c(C)c1 (single isomer, unassigned) [Ex. 25A]",
    "log10(IC50)": 3.04
  },
  {
    "molecule": "CCC(CC)(c1ccc(OC(C)C(O)C(C)(C)C)c(C)c1)c1ccc(C(=O)N[C@H](C)C(=O)O)c(C)c1 (stereo partly shown) [Ex. 48]",
    "log10(IC50)": 3.00
  },
  {
    "molecule": "CCC(CC)(c1ccc(C(=O)O)cc1)c1ccc(OCC(O)C(C)(C)C)c(C)c1 (single isomer, unassigned) [Ex. 22]",
    "log10(IC50)": 0.60
  },
  {
    "molecule": "CCC(CC)(c1ccc(OC(C)C(O)C(C)(C)C)c(C)c1)c1ccc(C(=O)N(C)CC(=O)O)c(C)c1 (single isomer, unassigned) [Ex. 52]",
    "log10(IC50)": 1.72
  },
  {
    "molecule": "CCC(CC)(c1ccc(OC(C)C(O)C(C)(C)C)c(C)c1)c1ccc(C(=O)NCC(=O)O)c(C)c1 (single isomer, unassigned) [Ex. 31]",
    "log10(IC50)": 1.32
  },
  {
    "molecule": "CCC(CC)(c1ccc(OC(C)C(O)C(C)(C)C)c(C)c1)c1ccc(C(=O)N[C@@H](C)C(=O)O)c(C)c1 (stereo partly shown)",
    "log10(IC50)": 3.00
  },
  {
    "molecule": "CCC(CC)(c1ccc(C(=O)O)cc1)c1ccc(OCC(O)C(C)(C)C)c(Cl)c1 (single isomer, unassigned) [Ex. 36]",
    "log10(IC50)": 2.14
  },
  {
    "molecule": "CCC(CC)(c1ccc(OCC(O)C(C)(C)C)c(C)c1)c1ccc(C(=O)Nc2nnn[nH]2)c(C)c1 (single isomer, unassigned)",
    "log10(IC50)": 0.60
  }
]
